Test system: THP1/LXR-Luc cells
Assay: THP1/LXR-Luc luciferase reporter bioassay
Assay type: cell-based
Details: Homo sapiens, THP-1; 48 hours; relative to maximum activation of free payload 9d; read-out: Activation of THP1/LXR-Luc cells: Fold of activation
This section presents molecules with their documented Emax values.

Molecule	Subject of test	Emax
C[C@]1(C(=O)NC(=O)[C@@]2(C)CCC[C@]3(C)c4cc(OP(=O)(O)O)ccc4CC[C@@H]23)CCC[C@]2(C)c3cc(N)ccc3CC[C@@H]12 [Compound 17c]	THP1/LXR-Luc cells	> 75%
CCc1cnc2c(C(F)(F)F)cccc2c1-c1cccc(Oc2cccc(S(=O)(=O)N(C)CCN)c2)c1 [Compound 31, reference compound]	THP1/LXR-Luc cells	25 to 75%
C[C@]1(C(=O)NC(=O)[C@@]2(C)CCC[C@]3(C)c4cc(NC(=O)[C@@H](N)CO)ccc4CC[C@@H]23)CCC[C@]2(C)c3cc(O)ccc3CC[C@@H]12 [Compound 9j]	THP1/LXR-Luc cells	> 75%

# query: Emax of entry O=S(=O)(c1ccccc1)N(CC(F)(F)F)c1ccc(C(O)(C(F)(F)F)C(F)(F)F)cc1 [Compound T0901317, reference compound] > 75%

# query: Emax of entry C[C@]1(C(=O)NC(=O)[C@@]2(C)CCC[C@]3(C)c4cc(O)ccc4CC[C@@H]23)CCC[C@]2(C)c3cc(O)ccc3CC[C@@H]12 [Compound 9a] > 75%

# query: Emax of entry C[C@]1(CNC(=O)[C@@]2(C)CCC[C@]3(C)c4cc(O)ccc4CC[C@@H]23)CCC[C@]2(C)c3cc(O)ccc3CC[C@@H]12 [Compound 9u] 25 to 75%
